test: folding stability dG unfold from trypsin proteolysis; higher = more stable
Recorded folding stability dG unfold, one value per entry.
MEASUREMENT LABEL: folding stability dG unfold (kcal/mol)

1. SAGGSAGGSAGSMSVTLSTTVEVTVEPLPDYTIVTVTTTTTFPDGSTTTTVTTTPVPPDLGSAGGSAGGSAG [r3_330_JUSTAS]; 0.957
2. SAGGSAGGSAGGNNLYSTSTTVLSTVPVRPDETVTRPGTGAPVSPSETVALSTTSTAPSLSAGGSAGGSAGG [r11_793_JUSTAS]; 0.629
3. SMKIIIEIEVEPGKTEEEIKEEAEALAKELAKKLGLPKEAKVKIEKVKLEDGKLRYIITIEVDGKTIEFESA [r9_776_TrROS_Hall]; 3.72
4. SAGGSAGGVISEEEIEAKAEEAKAEAIAAGLESKEVTITSPSGKVYKITVDVNSITIEKSPAAGSAGGSAGG [r6_270_JUSTAS]; 0.879
5. SLEEKIKEAIENSPPNSEVIVPLPDDRTVKITVTPETVTGDGRRRLRIKVTITIYDPSGTKLGEKVLEIPLS [r1_386_JUSTAS]; 2.66
6. SAGFSVEVTYNPPTGYLEIRFYNPPPNKPLKKETLEEIARKLLEELGIEGEIVEIKEEGNVYTIKVKIPSAG [r14_556_TrMRF]; 4.56
7. SAGGANLKIDIERHPGNGNINATIKFDGEEITVPATLSDIEEIIDEIIRVKPVPYYEKDGKLKPHWASAGGS [r8_332_TrROS]; -0.781

----------
assay: folding stability dG unfold from trypsin proteolysis; higher = more stable
Item-by-item account of folding stability dG unfold
MEASUREMENT LABEL: folding stability dG unfold (kcal/mol)

1) SAGGMPPVVLEYEIDIKPDPNETLEDVLEKAEEFVEELKEAFPELDLKEVKVEVDPEKGKVKITVVFPSAGG [r13_1011_TrMRF]; 1.77
2) SAGGSAGGSPRYQIPFEFPNGRNLYIQIERDPEEGQVKVDIMFPDGGTKEITVPPGEEIKIPWSAGGSAGGS [r12_922_TrROS]; -0.659
3) SAGGSAGGMKIIKYDKKTKKVLIYYDEETKEWYVRNKNGKIYKFKSVEEALKKLPVKVEIVKVPSAGGSAGG [r6_752_TrROS_Hall]; 1.5
4) SAGGSAGGSRKTILFRFPDGMMIKISLEENPNGNKRVRVTVYNPDNGKKRRMPADELPPNAKISAGGSAGGS [r12_797_TrROS]; 1.14
5) SAGSPIDLGEVEVEEKPVETDPATGLTTTETVITAPDGRPVFVKYTTKDPATGTTTVTETPVGVDPELTSAG [r5_200_JUSTAS]; -0.556
6) SAGGSAGGSAGGSLEIEITFELPDDVRLRIRARIEPLPDGSLKVEVEIELIPVKPDEDLSAGGSAGGSAGGS [r10_241_TrMRF]; 3.17
7) SAGGSAGGSAMKYYVTITFTDPNNGNTTTEIKEVTTEEEVEKVVEELAPSSYASVKVSIKPKSAGGSAGGSA [r18_258_JUSTAS]; 0.304
8) SAGGKMVKIEITLSPEEIEKIKEKLEEETGLEVEIKVEKNENGEVKLIITFKSEEAAKKALEKLGIESAGGS [r16_172_TrROS_Hall]; 2.63
9) SAGGSAGGMTLLIRDPETNELVEVTVEEKDGKLTLTVRNKKTGETTEIEIPLDEEPIEIVLLEPSAGGSAGG [r6_465_TrROS_Hall]; 2.09
10) SAGGSAGGSAGMPPNTVVLRESLEPGRVVLTLAVVTPGSVASVEVTEEFPVVPGTGVVVGSAGGSAGGSAGG [r11_66_JUSTAS]; 0.706
11) SAGGSAMKTLTATFSDGRSVTVEPENRTVTVSTPESSISTIPVPPDVPEVTITTPSGVTITLTVDTSAGGSA [r2_385_JUSTAS]; 0.287
12) SAGGSAGGSPKVTTSTSSSVLGNGRLESTVSNPDLGVTTLTLTDPESDVVTTFTETAGSTTPAASAGGSAGG [r6_757_JUSTAS]; 0.132
13) SAGGSAGGSKIKIYPYSTKGKNEVYYLIETENNYLYIKVTIYYDPKTGKPVKIEIKEIFTLPKSAGGSAGGS [r12_70_TrMRF]; 2.44
14) SAGGPNFIVKIRIPMRKYERENDPGGKPKWEPVEPQRVEITIIFKGPPEQAKQIREELENHGLEVEPISAGG [r13_452_TrROS]; 1.65
